The values you see were collected from PubChem BioAssay AID1508612.

- assayComment: passive permeability, PAMPA, ADME assay (AID 1508612)
- settings: pH 7.4, 30.0 min, 50.0 µM
measuredEndpoint: Papp (×10⁻⁶ cm/s)
Write down the numeric answer in ×10⁻⁶ cm/s and omit the unit.

Given the compound `O=C(c1ccc2ccccc2c1)N1CCN(c2ccc(O)cc2)CC1` , what is its reported Papp?
527

Fill in: Papp of `Cc1ccc(O)c(-c2cc(-c3ccccc3C)[nH]n2)c1` is ___
511

Reported Papp for `O=C(Nc1ccc([S+](=O)([O-])Nc2nccs2)cc1)c1ccccn1` : what is it?
3

# lookup: Papp of `O=C(Nc1cccc(F)c1)c1cc(-c2ccc[nH]2)n[nH]1`
136

----------
Please go through the items and note down their Papp.
- assayComment: passive permeability, PAMPA, ADME assay (AID 1508612)
- settings: pH 7.4, 30.0 min, 50.0 µM
Report as a plain number; the unit ×10⁻⁶ cm/s is understood.

Report Papp for `Nc1ncc(S(=O)(=O)N2CCN(c3ccccc3)CC2)cn1` please.
13.5

// query Papp value for entry `Fc1cc(Nc2nc(-c3ccncc3)nc3ccccc23)ccc1-c1cccc(C(F)(F)F)c1`
16.8

Bench note: what Papp did `COc1ccc(CCn2c(N)cc(=O)[nH]c2=S)cc1OC` show?
7.34

Value lookup for Papp; key = `O=C(CCCN1CCC2(CC1)C(=O)N(Cc1cccc(F)c1)CN2c1ccccc1)c1ccc(F)cc1`
21

Record request: Papp value, item `CCOc1ccccc1C(=O)Nc1cccnc1C(=O)Nc1cccc(S(=O)(=O)C(F)(F)F)c1`
8.1

Looking for the measured Papp of `C[C@H]1CN(C(=O)c2nn(C)c3ccccc23)C[C@@H]1c1nc(-c2cccnc2)no1` , can you help?
982

Please give the measured Papp for this compound: `CCNc1oc(-c2cccc3ccccc23)nc1C#N`
728

Entry `CN1C(=O)c2ccccc2[S@](=O)c2ccc(C(=O)NCCN3CCCC3)cc21` : reported Papp = ?
94.2

Record request: Papp value, item `O=C(Cc1ccc(Cl)c(Cl)c1)Nc1ccc(S(=O)(=O)Nc2cncnc2)cc1`
1.5

Suppose we examine the compound `Cc1nc2ccc(Nc3nc(-c4ccncc4)nc4ccccc34)cc2s1` ; what Papp value has been reported?
55.8

Any idea what its Papp is? The compound is `NC(=O)C1CCN(c2nc(-c3ccc4c(c3)OCCO4)cs2)CC1`
669

Requested read-out: Papp. Entry: `O=C([C@H](Cc1ccc(O[S+](=O)([O-])c2cccc3cnccc23)cc1)N[S+](=O)([O-])c1cccc2cnccc12)N1CCN(Cc2ccccc2)CC1`
399

Could you share which Papp value was measured for `O=C(Cc1ccc2ccccc2c1)Nc1ccc(S(=O)(=O)Nc2nccs2)cc1` ?
16.9

May I ask what Papp has been recorded for `Cc1ccnc(NC(=S)N2CCN(c3ncc(C(F)(F)F)cc3Cl)CC2)c1` ?
930

Give the measured Papp of `COc1ccc(CN2CCc3c(c(=O)n4ncc(C(=O)N5CCN(c6ccccc6OC)CC5)c4n3C)C2)cc1` .
445

Consider the compound shown here: `O=C(NCc1ccc(S(=O)(=O)c2cccc(C(F)(F)F)c2)cc1)c1cnc2[nH]ncc2c1` What is its recorded Papp?
797

----------
Give Papp for every item shown.
- assayComment: passive permeability, PAMPA, ADME assay (AID 1508612)
- settings: pH 7.4, 30.0 min, 50.0 µM
Please respond with the number in ×10⁻⁶ cm/s and leave the unit unwritten.

Return reported Papp; argument: Nc1nc2c(s1)C(c1c(Cl)cccc1Cl)CC(=O)N2 (stereo not given)
5.54

Quick one: Papp of `Oc1ccc(CNc2ccc(C(F)(F)F)cc2F)c2cccnc12` ?
150

Recorded Papp for `NC(=O)C1CCN(c2nccc(-c3ccc4c(c3)OCCCO4)n2)CC1` , please?
653

What value of Papp has been recorded for this entry: `CCn1cc(CNC(=O)c2cc(-c3ccc(C)cc3)nc3ccc(Br)cc23)c(C)n1`
5.55

Record request: Papp value, item `Fc1ccc(Nc2nc(-c3ccncc3)nc3ccccc23)cc1F`
376

Find the recorded Papp belonging to `CS(=O)(=O)c1ccc2nc(NC(=O)C3CC3)sc2c1` and report it.
106

I'd like to know its Papp. The compound in question is `CN1CCN(c2ccc(-c3cccc(CN4CCOCC4)c3)cc2NC(=O)c2c[nH]c(=O)cc2C(F)(F)F)CC1`
3.88

Dear colleague, I am looking for the recorded Papp of the following compound: `CCOc1ccc(S(=O)(=O)NCc2cccnc2)cc1NC(=O)c1ccccc1F`
99

What value of Papp has been reported for the following compound? `COc1cc2c(cc1OC)C(C[C@H]1CN(S(=O)(=O)c3cccc(C#N)c3)CC[C@H]1CC(=O)O)=NCC2`
3.25

Papp lookup needed for `O=C1Nc2ccccc2/C1=C\c1ccc(O)cc1` , thanks.
755

Any idea what its Papp is? The compound is `CN(C)C(=O)c1cc(-c2ccc(S(C)(=O)=O)cc2)c2cnn(C)c2n1`
22.6

Sample COc1cc(C2CC(=O)Nc3cc4c(cc32)OCCO4)cc(Br)c1OC (stereo not given) — what was its Papp?
376

Which value of Papp has been reported for `CC(C)(O)Cn1c(NC(=O)c2ccc(-c3cn[nH]c3)s2)nc2cc(CN3CCOCC3)ccc21` in the records?
368

# get_value(readout='Papp', item= `Cc1cc(-c2cc3c(nc2-c2ccccc2)nc(C(=O)NCCN(C)C)n3C)ccn1` )
320

State the recorded Papp for this entry: `Cn1ccc2c(C(=O)NCCC(N)=O)nc(-c3cccc(CO)c3)cc21`
29.9

Returns the measured Papp for the input compound. Input: `Cc1ccc(Nc2nc(-c3ccncc3)nc3ccccc23)cc1F`
15.5

Could you tell me which Papp is on file for `Cc1cnc(-c2ccccc2C2COC2)nc1NCC1CCN(c2cccnc2)CC1` ?
3.48

Value lookup for Papp; key = `Cn1ccc2c(C(=O)NCc3cccnc3)nc(-c3ccc(CO)cc3)cc21`
317

Tell me the measured Papp of `CC(C)C[C@H]1C(=O)N2CCC[C@H]2[C@]2(O)O[C@](NC(=O)[C@@H]3C=C4c5cccc6[nH]c(Br)c(c56)C[C@H]4N(C)C3)(C(C)C)C(=O)N12` , please.
876

# query: Papp of entry `CCc1ccc(S(=O)(=O)Nc2cnccc2C(=O)Nc2nc(-c3ccccc3)cs2)cc1`
300

Query: Papp; subject: `CN1C(=O)CN=C(c2ccc[nH]2)c2cc(Cl)ccc21`
714

Dear colleague, I am looking for the recorded Papp of the following compound: `CC(C)c1cc(C(=O)N2CC[C@@H](NC(=O)C3CC3)C2)n[nH]1`
1.3

Recorded Papp of `Cc1ccc(S(=O)(=O)Nc2cnccc2C(=O)Nc2nc(-c3ccc(F)cc3)cs2)cc1` , please.
423

Data request, read-out Papp, for `Fc1cccc(CNc2nc(-c3ccccc3C(F)(F)F)nc3ccccc23)c1`
315

I would be grateful if you could share the reported Papp for `CC(C)(C)c1ccc(C(=O)Nc2cn3cc(-n4ccnc4)ccc3n2)cc1` .
952

For the compound shown here, `C#C[C@]1(OC(C)=O)CC[C@H]2[C@@H]3CCC4=C/C(=N/O)CC[C@@H]4[C@H]3CC[C@@]21CC` , give the reported Papp.
858

May I ask what Papp has been recorded for `CN(C)S(=O)(=O)c1cccc(NC(=O)c2ccc[nH]2)c1` ?
179

Recorded Papp for `Cn1ncnc1[C@H]1c2n[nH]c(=O)c3cc(F)cc(c23)N[C@@H]1c1ccc(F)cc1` , please?
60.5

# get_value(readout='Papp', item= `Cc1ccc(NC(=O)Nc2cc3c(cc2N2CCCCC2)n(C)c(=O)n3C)cc1Cl` )
8

Which Papp value is on record for `CC1=Nc2cc(C(=O)NCc3ccccc3Cl)ccc2Sc2c(C)ccc(C)c21` ?
161
